src = patent US20140045823A1

Biological target: human GPR119 (Homo sapiens, UniProt Q8TDV5)
Construct: expression vector for human GPR119 cDNA (Acc. No. NP_848566); Min-6/hGPR119
Sequence (Q8TDV5 1-335): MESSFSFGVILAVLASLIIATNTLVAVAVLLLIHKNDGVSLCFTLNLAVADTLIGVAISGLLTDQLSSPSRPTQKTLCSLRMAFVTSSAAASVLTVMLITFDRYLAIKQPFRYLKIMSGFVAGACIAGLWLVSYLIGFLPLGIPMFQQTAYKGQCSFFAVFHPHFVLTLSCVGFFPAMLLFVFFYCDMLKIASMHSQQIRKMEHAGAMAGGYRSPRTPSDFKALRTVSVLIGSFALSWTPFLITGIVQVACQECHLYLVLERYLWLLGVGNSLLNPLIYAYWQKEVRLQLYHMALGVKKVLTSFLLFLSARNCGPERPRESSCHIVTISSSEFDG
Assay: AlphaScreen cAMP assay in MIN6 cells stably transfected with human GPR119
Details: Min-6/hGPR119 cells, 45 min at room temperature
READOUT: EC50 (µM)

1. CC(C)(C)OC(=O)N1CCC(N(C(=O)c2cnc(-c3ccc(S(C)(=O)=O)cc3F)o2)C2CC2)CC1 [Example 30] : 0.176
2. Cc1c(C(=O)N(C2CC2)C2CCN(C(=O)OC(C)(C)C)CC2)noc1-c1ccc(C#N)c(F)c1 [Example 45] : 0.025
3. CC(C)(C)OC(=O)N1CCC(N(C(=O)c2cn(-c3ccc(C#N)cc3F)cn2)C2CC2)CC1 [Example 16] : 0.066

P: CN(CC#N)C(=O)Cc1ccc(-c2ncc(C(=O)N(C3CC3)C3CCN(C(=O)OC(C)(C)C)CC3)cn2)cc1 [Example 218]
Q: CC(C)(C)OC(=O)N1CCC(N(C(=O)c2cc(-c3ccc(C#N)cc3)on2)C2CC2)CC1 [Example 38]
So which one has the bigger EC50 here, P or Q ? State the label of the item chosen.
P
(P: 0.216 µM, Q: 0.009 µM)

I: COc1ccc(NC(=O)c2ccc(-c3ncc(C(=O)N(C4CC4)C4CCN(C(=O)OC(C)(C)C)CC4)cn3)cc2)c(OC)c1 [Example 238]
II: Cn1ccc(CNC(=O)c2ccc(-c3ncc(C(=O)N(C4CC4)C4CCN(C(=O)OC(C)(C)C)CC4)cn3)cc2F)n1 [Example 136]
Determine, for I and II , which has the greater value of EC50. Write the label of whichever entry you select.
II
(II: 0.194 µM, I: 0.111 µM)

a: COCCN(C)C(=O)c1ccc(-c2ncc(C(=O)N(C3CC3)C3CCN(C(=O)OC(C)(C)C)CC3)cn2)cc1 [Example 196]
b: COC(C)CN(C)C(=O)c1ccc(-c2ncc(C(=O)N(C3CC3)C3CCN(C(=O)OC(C)(C)C)CC3)cn2)cc1F (centres unmarked) [Example 107]
When their EC50 values are compared, which is larger, a or b ? Please respond with the label that marks your chosen entry.
a

A: CC(C)(C)OC(=O)N1CCC(N(C(=O)c2cnc(-c3cccnc3)nc2)C2CC2)CC1 [Example 70]
B: COc1ccc(NC(=O)c2ccc(-c3ncc(C(=O)N(C4CC4)C4CCN(C(=O)OC(C)(C)C)CC4)cn3)cc2F)cn1 [Example 122]
C: CC(C)(C)OC(=O)N1CCC(N(C(=O)c2cnc(-c3ccc(C(=O)N4CCOCC4)cc3)nc2)C2CC2)CC1 [Example 230]
Arrange items by their EC50 values in increasing order. Form entry: labels listed in requested order.
B, C, A
(B: 0.055 µM, C: 0.297 µM, A: 0.489 µM)

a: CC(C)(C)OC(=O)N1CCC(N(C(=O)c2cnc(-c3ccc(CC(=O)Nc4cccc(CO)c4)cc3)nc2)C2CC2)CC1 [Example 217]
b: CCOc1ccc(-c2ncc(C(=O)N(C3CC3)C3CCN(C(=O)OC(C)(C)C)CC3)cn2)cc1 [Example 76]
Between the entries labelled a and b , which has a larger EC50 value on record? // respond with label for picked entry
a
(a: 0.55 µM, b: 0.071 µM)

====

Target: human GPR119 (Homo sapiens)
Construct: expression vector for human GPR119 cDNA (Acc. No. NP_848566); Min-6/hGPR119
Sequence (Q8TDV5 1-335): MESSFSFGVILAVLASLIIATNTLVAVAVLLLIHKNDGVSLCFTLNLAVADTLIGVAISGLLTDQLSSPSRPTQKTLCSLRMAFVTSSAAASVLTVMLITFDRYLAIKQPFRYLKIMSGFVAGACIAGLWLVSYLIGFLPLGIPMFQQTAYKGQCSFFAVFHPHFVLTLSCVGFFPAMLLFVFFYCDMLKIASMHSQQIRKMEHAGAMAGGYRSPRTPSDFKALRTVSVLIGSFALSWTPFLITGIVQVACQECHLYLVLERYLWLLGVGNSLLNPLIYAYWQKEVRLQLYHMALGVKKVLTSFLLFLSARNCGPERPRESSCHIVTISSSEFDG
Assay: AlphaScreen cAMP assay in MIN6 cells stably transfected with human GPR119
Conditions: Min-6/hGPR119 cells, 45 min at room temperature
pEC50: −log10 of the molar value.
READOUT: pEC50

I: COCc1sc(NC(=O)c2ccc(-c3ncc(C(=O)N(C4CC4)C4CCN(C(=O)OC(C)(C)C)CC4)cn3)cc2)nc1C [Example 185]
II: Cc1nccn1-c1ncc(C(=O)N(C2CC2)C2CCN(C(=O)OC3(C)CC3)CC2)cn1 [Example 55]
III: CC(C)(C)OC(=O)N1CCC(N(C(=O)c2cc(-c3ccc(C#N)c(F)c3)no2)C2CC2)CC1 [Example 43]
IV: CCc1nccn1-c1ncc(C(=O)N(C2CC2)C2CCN(C(=O)OC(C)C)CC2)cn1 [Example 52]
V: CC(C)(C)OC(=O)N1CCC(N(C(=O)c2ncc(-c3ccc(C#N)nc3)cn2)C2CC2)CC1 [Example 69]
# rank by pEC50, ascending (min first) Please respond by ranking the labels in the order requested.
V, I, IV, II, III
(V: 5.95, I: 6.41, IV: 6.68, II: 6.97, III: 7.85)

I: CC(C)OC(=O)N1CCC(N(C(=O)c2cnc(-c3ccc(CC#N)cc3)nc2)C2CC2)CC1 [Example 60]
II: CN(CCOCC1CC1)C(=O)c1ccc(-c2ncc(C(=O)N(C3CC3)C3CCN(C(=O)OC(C)(C)C)CC3)cn2)c(F)c1 [Example 138]
Please state the entry with greater pEC50 among I and II . Choose, then provide that item's label.
I

====

Target: human GPR119 (Homo sapiens)
Construct: expression vector for human GPR119 cDNA (Acc. No. NP_848566); Min-6/hGPR119
Sequence (Q8TDV5 1-335): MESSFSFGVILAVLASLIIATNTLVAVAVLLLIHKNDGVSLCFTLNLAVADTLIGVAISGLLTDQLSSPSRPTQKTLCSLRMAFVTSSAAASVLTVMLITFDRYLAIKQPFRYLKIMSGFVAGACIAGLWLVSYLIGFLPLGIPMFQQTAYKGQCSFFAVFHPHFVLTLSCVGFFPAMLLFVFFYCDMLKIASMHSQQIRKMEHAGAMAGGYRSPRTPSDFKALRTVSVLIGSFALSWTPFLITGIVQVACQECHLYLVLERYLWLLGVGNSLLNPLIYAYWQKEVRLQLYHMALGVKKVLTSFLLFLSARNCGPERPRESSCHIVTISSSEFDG
Test: AlphaScreen cAMP assay in MIN6 cells stably transfected with human GPR119
Conditions: Min-6/hGPR119 cells, 45 min at room temperature
pEC50: −log10 of the molar value.
READOUT: pEC50

Example results:
1) CC(C)(C)OC(=O)N1CCC(N(C(=O)c2cnc(-n3cc(CCO)cn3)nc2)C2CC2)CC1 : 5.66
2) Cc1nc(-c2ccc(C#N)cc2F)sc1C(=O)N(C1CC1)C1CCN(C(=O)OC(C)(C)C)CC1 : 5.87
3) CC(C)(C)OC(=O)N1CCC(N(C(=O)c2ncc(-c3ccc(S(C)(=O)=O)cc3)o2)C2CC2)CC1 : 6.45
4) CC(C)(C)OC(=O)N1CCC(N(C(=O)c2cnc(-c3ccc(C(=O)Nc4ccnnc4)cc3)nc2)C2CC2)CC1 : 6.38

a: CC(C)(C)OC(=O)N1CCC(N(C(=O)c2cnc(-c3ccc(C(=O)Nc4ccccc4)c(F)c3)nc2)C2CC2)CC1
b: CC(C)(C)OC(=O)N1CCC(N(C(=O)c2cnc(-n3cccn3)nc2)C2CC2)CC1
Which entry has a larger number for pEC50, a or b ? Your answer should be the label attached to the chosen record.
a
(a: 6.96, b: 5.56)

====

Target: human GPR119 (Homo sapiens)
Construct: expression vector for human GPR119 cDNA (Acc. No. NP_848566); Min-6/hGPR119
Sequence (Q8TDV5 1-335): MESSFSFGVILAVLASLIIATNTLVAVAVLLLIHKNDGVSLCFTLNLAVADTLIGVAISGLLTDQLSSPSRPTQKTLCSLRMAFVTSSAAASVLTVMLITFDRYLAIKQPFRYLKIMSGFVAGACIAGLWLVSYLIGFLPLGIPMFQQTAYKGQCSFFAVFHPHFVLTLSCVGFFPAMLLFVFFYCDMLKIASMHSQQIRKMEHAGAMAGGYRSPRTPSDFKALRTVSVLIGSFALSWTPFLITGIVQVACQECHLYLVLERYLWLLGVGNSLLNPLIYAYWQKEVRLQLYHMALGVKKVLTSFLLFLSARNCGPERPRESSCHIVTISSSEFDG
Assay: AlphaScreen cAMP assay in MIN6 cells stably transfected with human GPR119
Settings: Min-6/hGPR119 cells, 45 min at room temperature
READOUT: EC50 (µM)

Some solved cases for reference:
1. CC(C)(C)OC(=O)N1CCC(N(C(=O)c2cnc(-c3ccc(C(=O)NCC4CCOCC4)c(F)c3)nc2)C2CC2)CC1 [Example 128] : 0.156
2. Cc1ncoc1-c1ccc(C(=O)N(C2CC2)C2CCN(C(=O)OC(C)(C)C)CC2)cn1 [Example 13] : 0.132

1: CN(CC1CCOCC1)C(=O)c1ccc(-c2ncc(C(=O)N(C3CC3)C3CCN(C(=O)OC(C)(C)C)CC3)cn2)cc1F [Example 158]
2: COc1ccc(NC(=O)c2ccc(-c3ncc(C(=O)N(C4CC4)C4CCN(C(=O)OC(C)(C)C)CC4)cn3)cc2F)c(OC)c1 [Example 120]
Please indicate which has the smaller reported EC50: 1 , or 2 . I would appreciate it if you answered with the label of your choice.
2
(2: 0.212 µM, 1: 0.359 µM)
